test system: CAL-27; assay: Cytotoxicity against human CAL-27 cells assessed as cell growth inhibition; format: functional, cell-based
pIC50: −log10 of the molar value.

>  <molecule>
COc1ccc2nc(NC(=O)CN3CCN(Cc4c(O)c(OC)c(O)c5c4C(=O)OC4C5O[C@H](CO)[C@@H](O)[C@@H]4O)CC3)sc2c1 (some centres undefined)

>  <relation.sign>
<

>  <pIC50>
4.00

$$$$
>  <molecule>
COc1cccc2c1C(=O)c1c(O)c3c(c(O)c1C2=O)C[C@@](O)(C(=O)CO)C[C@@H]3O[C@H]1C[C@H](N)[C@H](O)[C@H](C)O1

>  <relation.sign>
=

>  <pIC50>
6.40

$$$$
>  <molecule>
COc1c(O)c(CN2CCN(S(=O)(=O)c3ccc(C(F)(F)F)cc3)CC2)c2c(c1O)C1O[C@H](CO)[C@@H](O)[C@H](O)C1OC2=O (some centres undefined)

>  <relation.sign>
=

>  <pIC50>
4.16

$$$$
>  <molecule>
COc1c(O)c(CN2CCN(CC(=O)Nc3nc4ccccc4s3)CC2)c2c(c1O)C1O[C@H](CO)[C@@H](O)[C@H](O)C1OC2=O (some centres undefined)

>  <relation.sign>
=

>  <pIC50>
4.04

$$$$

----------
system: A549; test: Cytotoxicity against human A549 cells assessed as cell growth inhibition; type: functional, cell-based
pIC50: −log10 of the molar value.
Here the recorded pIC50 is given for each entry.

>  <compound>
COc1ccc2nc(NC(=O)CN3CCN(Cc4c(O)c(OC)c(O)c5c4C(=O)OC4C5O[C@H](CO)[C@@H](O)[C@@H]4O)CC3)sc2c1 (some centres undefined)

>  <pIC50>
< 4.00

$$$$
>  <compound>
COc1c(O)c(CN2CCN(CC(=O)Nc3nc(-c4ccc5ccccc5c4)cs3)CC2)c2c(c1O)C1O[C@H](CO)[C@@H](O)[C@H](O)C1OC2=O (some centres undefined)

>  <pIC50>
4.39

$$$$
>  <compound>
COc1c(O)c(CN2CCN(CC(=O)Nc3nc4c(C)cccc4s3)CC2)c2c(c1O)C1O[C@H](CO)[C@@H](O)[C@H](O)C1OC2=O (some centres undefined)

>  <pIC50>
< 4.00

$$$$
>  <compound>
COc1c(O)c(CN2CCN(CC(=O)Nc3nc(-c4ccccc4)cs3)CC2)c2c(c1O)C1O[C@H](CO)[C@@H](O)[C@H](O)C1OC2=O (some centres undefined)

>  <pIC50>
< 4.00

$$$$

----------
test: Cytotoxicity against human BEAS-2B cells assessed as cell growth inhibition; format: toxicity, cell-based
pIC50: −log10 of the molar value.

>  <molecule>
COc1c(O)c(CN2CCN(S(=O)(=O)c3ccc([N+](=O)[O-])cc3)CC2)c2c(c1O)C1O[C@H](CO)[C@@H](O)[C@H](O)C1OC2=O (stereo partly specified)

>  <pIC50>
< 4.00

$$$$
>  <molecule>
COc1c(O)c(CN2CCN(CC(=O)Nc3nc(-c4cccc5ccccc45)cs3)CC2)c2c(c1O)C1O[C@H](CO)[C@@H](O)[C@H](O)C1OC2=O (stereo partly specified)

>  <pIC50>
4.08

$$$$
>  <molecule>
COc1c(O)c(CN2CCN(CC(=O)Nc3nc4ccc(C)cc4s3)CC2)c2c(c1O)C1O[C@H](CO)[C@@H](O)[C@H](O)C1OC2=O (stereo partly specified)

>  <pIC50>
< 4.00

$$$$
>  <molecule>
COc1c(O)c(CN2CCN(S(=O)(=O)c3ccc(F)c(F)c3)CC2)c2c(c1O)C1O[C@H](CO)[C@@H](O)[C@H](O)C1OC2=O (stereo partly specified)

>  <pIC50>
< 4.00

$$$$
>  <molecule>
COc1ccc2nc(NC(=O)CN3CCN(Cc4c(O)c(OC)c(O)c5c4C(=O)OC4C5O[C@H](CO)[C@@H](O)[C@@H]4O)CC3)sc2c1 (stereo partly specified)

>  <pIC50>
< 4.00

$$$$
>  <molecule>
COc1ccc(-c2csc(NC(=O)CN3CCN(Cc4c(O)c(OC)c(O)c5c4C(=O)OC4C5O[C@H](CO)[C@@H](O)[C@@H]4O)CC3)n2)cc1 (stereo partly specified)

>  <pIC50>
< 4.00

$$$$
